Provenance of the data: ChEMBL document CHEMBL2434854

Recorded IC50 for the following molecules
System: LoVo
Experiment: Anticancer activity against human LoVo cells after 48 hrs by SRB assay
Assay type: functional, cell-based
Details: Homo sapiens, LoVo, 48 h; read-out: IC50
measured_property: IC50 (µM)

INSERT INTO measurements (structure_string, measured_property, value_reported) VALUES
  ('Cc1ccnc(NS(=O)(=O)c2ccc(N/C(S)=N\c3ccnc4cc(C(F)(F)F)ccc34)cc2)n1', 'IC50', 31),
  ('O=S(=O)(Nc1ccnn1-c1ccccc1)c1ccc(Nc2ccnc3cc(C(F)(F)F)ccc23)cc1', 'IC50', 56.8),
  ('O=C(Nc1ccccc1)Nc1ccc(S(=O)(=O)Nc2ccnc3cc(C(F)(F)F)ccc23)cc1', 'IC50', 30.2),
  ('COc1ncnc(NS(=O)(=O)c2ccc(N/C(S)=N\c3ccnc4cc(C(F)(F)F)ccc34)cc2)c1OC', 'IC50', 28.4),
  ('O=S(=O)(Nc1ccccn1)c1ccc(N/C(S)=N\c2ccnc3cc(C(F)(F)F)ccc23)cc1', 'IC50', 87.5);

* * *

Test system: LoVo
Assay: Anticancer activity against human LoVo cells after 48 hrs by SRB assay
Format: functional, cell-based
Details: Homo sapiens, LoVo, 48 h; read-out: IC50
pIC50: −log10 of the molar value.
Recorded pIC50 for the following molecules
measured_property: pIC50

INSERT INTO results (molecule, value_reported) VALUES
  ('Nc1ccc(S(=O)(=O)Nc2ccnc3cc(C(F)(F)F)ccc23)cc1', 4.27),
  ('COc1cccc2c1C(=O)c1c(O)c3c(c(O)c1C2=O)C[C@@](O)(C(=O)CO)C[C@@H]3O[C@H]1C[C@H](N)[C@H](O)[C@H](C)O1 [DOXORUBICIN]', 4.61),
  ('Cc1cc(NS(=O)(=O)c2ccc(Nc3ccnc4cc(C(F)(F)F)ccc34)cc2)on1', 4.47),
  ('O=C(Nc1ccccc1)NS(=O)(=O)c1ccc(Nc2ccnc3cc(C(F)(F)F)ccc23)cc1', 4.71);
